# assay explanation: Rotarod (neurotoxicity and sedation)
# study conditions: ip
Structures can show the parent of a compound that is named as a salt.
parameter measured: TD50 (mg/kg)
Numbers only, in mg/kg.

Quick batch: TD50 for everything below.
1. CN(C)C1C2C=CCC1c1ccccc1C2 (stereo not drawn)
2. O=C1NC(=O)C(c2ccccc2)(c2ccccc2)N1
3. CCCC(CCC)C(=O)O [sodium salt of valproic acid]

output:
1. 70
2. 100
3. 230
